Hello, the source for this data is paper PMC10726465, in case you need it.

TARGET OR SYSTEM: CYP 3A4 (Homo sapiens)
Sequence (P08684 whole entry): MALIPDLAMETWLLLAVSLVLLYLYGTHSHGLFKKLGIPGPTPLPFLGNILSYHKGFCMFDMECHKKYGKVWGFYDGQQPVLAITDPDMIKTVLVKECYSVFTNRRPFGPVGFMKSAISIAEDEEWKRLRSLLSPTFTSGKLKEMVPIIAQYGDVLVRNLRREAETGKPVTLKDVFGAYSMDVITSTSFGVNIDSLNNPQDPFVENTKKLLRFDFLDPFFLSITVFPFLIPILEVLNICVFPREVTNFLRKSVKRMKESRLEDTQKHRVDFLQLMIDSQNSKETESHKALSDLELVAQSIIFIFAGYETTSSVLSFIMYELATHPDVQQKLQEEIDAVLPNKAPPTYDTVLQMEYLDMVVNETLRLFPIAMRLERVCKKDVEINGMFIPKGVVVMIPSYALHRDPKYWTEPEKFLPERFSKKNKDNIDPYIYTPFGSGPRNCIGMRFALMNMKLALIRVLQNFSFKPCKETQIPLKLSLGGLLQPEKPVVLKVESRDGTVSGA
PROTOCOL NOTES: CYP450 inhibition (3A4)
Format: in vitro ADME
READOUT NAME: IC50

Sure, the documented IC50 for CSc1ccc(C(N)=O)cc1-c1ccc2c(cnn2C)c1 [Compound 16] is > 25 µM

====

TARGET OR SYSTEM: androgen receptor (AR) (Homo sapiens)
CONDITIONS USED: from VCaP GRE2-luciferase IC50
Just a reminder that ties go to 0.0: only Ligand Efficiency (LE) strictly below 0.5 counts as 1.0.

Strictly below 0.5: is that where Ligand Efficiency (LE) of CSc1ccc(C(=O)N2CCOCC2)cc1-c1cncnc1 sits?
0.0

Please check: Ligand Efficiency (LE) for CSc1ccc(C(N)=O)cc1-c1cccc(O)c1F , strictly under 0.5 or not?
0.0

Is the reported Ligand Efficiency (LE) for CSc1c(F)cc(C(N)=O)cc1-c1ccc2c(cnn2C)c1 strictly below 0.5?
0.0

Is it true that Ligand Efficiency (LE) reported for CSc1ccc(C(N)=O)cc1-c1ccc2occc2c1 is less than 0.5?
0.0

For Cn1ncc2cc(-c3cccc(C(N)=O)c3)ccc21 , is the recorded Ligand Efficiency (LE) below the cut-off of 0.5?
0.0

Field: below-cutoff. Rule: recorded Ligand Efficiency (LE) strictly less than 0.5. Subject: CC(C)COc1ccc(C(N)=O)cc1-c1ccc2c(cnn2C)c1
1.0

Lab log: compare recorded Ligand Efficiency (LE) with 0.5; is it strictly lower for CN(C)CCNc1ccc(C(N)=O)cc1-c1ccc2c(cnn2C)c1 ?
1.0

Is it true that Ligand Efficiency (LE) reported for CSc1ccc(C(N)=O)cc1-c1ccc2c(c1)CCO2 is less than 0.5?
0.0

API: query returns whether the compound falls strictly under 0.5 in Ligand Efficiency (LE). Query: CSc1ccc(C(N)=O)cc1-c1cncnc1
0.0

====

TARGET OR SYSTEM: androgen receptor (AR) (Homo sapiens, UniProt P10275)
Sequence (P10275 1-920): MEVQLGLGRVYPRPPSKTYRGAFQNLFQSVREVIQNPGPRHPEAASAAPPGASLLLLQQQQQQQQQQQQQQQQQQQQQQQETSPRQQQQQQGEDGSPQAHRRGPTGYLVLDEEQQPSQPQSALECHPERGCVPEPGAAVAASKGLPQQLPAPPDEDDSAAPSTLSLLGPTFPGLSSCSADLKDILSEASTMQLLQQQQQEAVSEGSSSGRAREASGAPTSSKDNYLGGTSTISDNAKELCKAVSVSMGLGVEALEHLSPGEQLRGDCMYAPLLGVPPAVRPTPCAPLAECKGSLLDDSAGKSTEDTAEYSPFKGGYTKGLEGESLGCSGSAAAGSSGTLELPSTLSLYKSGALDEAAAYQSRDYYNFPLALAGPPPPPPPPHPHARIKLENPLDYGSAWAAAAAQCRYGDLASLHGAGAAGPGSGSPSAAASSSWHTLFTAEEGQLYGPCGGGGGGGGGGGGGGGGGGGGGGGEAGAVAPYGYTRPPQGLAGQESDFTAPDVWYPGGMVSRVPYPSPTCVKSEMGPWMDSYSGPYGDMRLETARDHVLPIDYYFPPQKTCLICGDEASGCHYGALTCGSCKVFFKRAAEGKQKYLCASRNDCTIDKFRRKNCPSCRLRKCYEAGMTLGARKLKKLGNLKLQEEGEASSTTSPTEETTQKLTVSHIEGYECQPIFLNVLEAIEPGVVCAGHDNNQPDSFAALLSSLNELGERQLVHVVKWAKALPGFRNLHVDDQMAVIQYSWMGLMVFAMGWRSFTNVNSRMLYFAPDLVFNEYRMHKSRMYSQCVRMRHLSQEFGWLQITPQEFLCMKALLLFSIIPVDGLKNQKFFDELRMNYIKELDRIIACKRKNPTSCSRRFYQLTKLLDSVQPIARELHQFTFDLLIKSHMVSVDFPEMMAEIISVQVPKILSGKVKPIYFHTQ
CONDITIONS USED: from VCaP GRE2-luciferase IC50 and cLogP
READOUT NAME: Lipophilic Ligand Efficiency (LLE)

Field Lipophilic Ligand Efficiency (LLE) (system: androgen receptor (AR) (Homo sapiens, UniProt P10275)) for entry Cn1ncc2cc(-c3cncc(C(N)=O)c3)ccc21 = 6.7

For the compound Cn1ncc2cc(-c3cc(C(N)=O)ccc3NCCN3CCOCC3)ccc21 , the measured Lipophilic Ligand Efficiency (LLE) on androgen receptor (AR) (Homo sapiens, UniProt P10275) was 6.4

Result for Cn1ncc2cc(-c3cc(C(N)=O)ccc3N3CCOCC3)ccc21 , tested on androgen receptor (AR) (Homo sapiens, UniProt P10275), Lipophilic Ligand Efficiency (LLE): 6.1

Record CSc1ccc(C(N)=O)cc1-c1ccc2[nH]cnc2c1 ; system androgen receptor (AR) (Homo sapiens, UniProt P10275); Lipophilic Ligand Efficiency (LLE) = 6.6

Observed Lipophilic Ligand Efficiency (LLE) on androgen receptor (AR) (Homo sapiens, UniProt P10275), entry CSc1cc(C(N)=O)cc(-c2ccc3c(cnn3C)c2)c1 , equals 5.3

// compound CSc1ccc(C(N)=O)cc1-c1cc(O)cc(F)c1 , assay androgen receptor (AR) (Homo sapiens, UniProt P10275), Lipophilic Ligand Efficiency (LLE) value: 4.9

====

TARGET OR SYSTEM: UniProt P10275
Sequence (P10275 1-920): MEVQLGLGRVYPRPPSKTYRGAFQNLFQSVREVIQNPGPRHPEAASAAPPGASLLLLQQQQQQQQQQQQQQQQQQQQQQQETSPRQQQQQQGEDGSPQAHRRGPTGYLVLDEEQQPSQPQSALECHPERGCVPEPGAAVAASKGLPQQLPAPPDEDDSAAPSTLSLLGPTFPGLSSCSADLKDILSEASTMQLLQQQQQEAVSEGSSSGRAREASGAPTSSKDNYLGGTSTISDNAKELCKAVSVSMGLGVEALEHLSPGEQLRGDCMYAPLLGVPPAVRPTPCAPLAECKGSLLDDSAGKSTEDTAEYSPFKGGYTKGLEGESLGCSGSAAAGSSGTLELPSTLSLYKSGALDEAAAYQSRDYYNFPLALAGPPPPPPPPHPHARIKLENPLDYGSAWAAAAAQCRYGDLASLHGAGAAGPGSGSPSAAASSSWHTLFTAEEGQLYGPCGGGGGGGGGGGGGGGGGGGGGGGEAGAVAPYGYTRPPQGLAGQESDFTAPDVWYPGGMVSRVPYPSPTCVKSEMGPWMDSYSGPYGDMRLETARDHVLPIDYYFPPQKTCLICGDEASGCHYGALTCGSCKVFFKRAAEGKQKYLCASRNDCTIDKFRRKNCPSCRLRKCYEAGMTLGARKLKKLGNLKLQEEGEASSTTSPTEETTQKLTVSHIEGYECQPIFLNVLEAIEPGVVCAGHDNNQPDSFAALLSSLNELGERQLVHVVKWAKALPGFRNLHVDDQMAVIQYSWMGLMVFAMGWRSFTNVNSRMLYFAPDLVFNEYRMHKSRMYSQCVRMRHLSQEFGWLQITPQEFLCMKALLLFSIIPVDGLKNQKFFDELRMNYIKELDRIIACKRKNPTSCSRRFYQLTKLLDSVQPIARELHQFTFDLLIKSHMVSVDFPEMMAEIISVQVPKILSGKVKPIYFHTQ
CONDITIONS USED: from VCaP GRE2-luciferase IC50
READOUT NAME: Ligand Efficiency (LE)
I'd appreciate a reply containing only the number, no unit.

The value of Ligand Efficiency (LE) recorded for CSc1ccc(C(N)=O)cc1-c1cccc2c1CC(=O)N2 when tested on UniProt P10275 reads 0.49

So the reported Ligand Efficiency (LE) for CCc1ccc(C(N)=O)cc1-c1ccc2c(cnn2C)c1 , on UniProt P10275, turned out to be 0.49

Fill in: UniProt P10275 Ligand Efficiency (LE) for COc1ncc(C(N)=O)cc1-c1ccc2c(cnn2C)c1 = 0.49
